These measurements were taken from ChEMBL document CHEMBL1250492.

- Test system: Mycolicibacterium smegmatis
- PROCEDURE DETAILS: Antimycobacterial activity against Mycobacterium smegmatis after 24 hrs by MTT assay
- Assay type: functional, organism-based
- STUDY CONDITIONS: Mycolicibacterium smegmatis, 24 h
ASSAY ENDPOINT: IC50 (µM)

>>> value_reported("C=CCOc1cccc(C2(O)NC(=O)c3cnccc32)c1 (stereo unspecified)")
1300
>>> value_reported("CCCCCCCCCCCCc1cccc(C2(O)NC(=O)c3cnccc32)c1 (stereo unspecified)")
47
>>> value_reported("CCCCCCCCCc1ccc(-c2cccc(C3(O)NC(=O)c4cnccc43)c2)cc1 (stereo unspecified)")
1800
>>> value_reported("O=C1NC(O)(c2cccc(O)c2)c2ccncc21 (stereo unspecified)")
300
>>> value_reported("CCCCCCCCCCCCc1cccc(C(=O)C2C=CN(CC(=O)OCC)C=C2C(N)=O)c1 (stereo unspecified)")
5.3
